Ref: PubChem BioAssay (NCI)

Catalogue of TGI values
# Tested on: SK-OV-3 ovarian
# Protocol notes: NCI tumour cell line growth inhibition, 48 h
Lab book: enter the figure in µM, no units written.

CC1=C(SC#N)S(=O)(=O)N(c2ccccc2)C(C)=C1SC#N = 89.9

Next compound, TGI to be filled in.
// CSc1cnc2ccccc2c1Sc1c[nH]c2ccccc2c1=O : TGI value = 14.8

---

# Test system: RPMI-8226 leukemia
# Protocol notes: NCI tumour cell line growth inhibition, 48 h
Experimental endpoint: log10 of TGI (log10 of the value in µM)
Scale: log10; quantity: TGI; unit before log: µM

The cases that follow already have their log10 of TGI on record.
CS(=O)(=O)OCCCNCCCOS(C)(=O)=O = 3.83
O=C(CN(/C=C/C(=O)C(F)(F)F)c1ccc(Cl)cc1)c1ccc(Cl)c(Cl)c1 = 1.23
O=C(NCCCc1cn[nH]c1)c1ccc(-c2ccncc2)c(C#Cc2ccc(F)cc2)c1 = 0.98
COc1cccc(C2c3cc4c(cc3OC(Nc3ccccc3)C2C)OCO4)c1O (stereo not given) = 1.64

Next molecule, log10 of TGI to be filled in.
// COc1ccc(-c2ccc(/C=N/n3c(COc4ccccc4Cl)nn(CN4CCOCC4)c3=S)o2)c([N+](=O)[O-])c1 : log10 of TGI value = 1.62

---

# Tested on: MALME-3M melanoma
# Protocol notes: NCI tumour cell line growth inhibition, 48 h
Catalogue of TGI values

The cases that follow already have their TGI on record.
O=[N+]([O-])c1ccc(Cl)c(CNc2ncnc3c2ncn3C2CCCCO2)c1 (centres undefined) = > 100 µM
Cc1ccc(N=C[N-]c2ccc(C)cc2)cc1.Cc1ccc(N=C[N-]c2ccc(C)cc2)cc1.O=C([O-])C(F)(F)F.O=C([O-])C(F)(F)F.[OH3+].[OH3+].[Rh+2].[Rh+2] = 56.1 µM
Cc1ccc(-c2nc(/C=N/Nc3cc(C)nc4ccc(Cl)cc34)c(C)o2)cc1 = 3.67 µM

Next compound, TGI to be filled in.
Summary: C#Cc1cccc(Nc2nc(Cl)nc3cc(NC(=O)CCl)ccc23)c1 , MALME-3M melanoma, TGI = 2.25 µM

---

Catalogue of TGI values
# Test system: SW-620 colon
# Protocol notes: NCI tumour cell line growth inhibition, 48 h

The cases that follow already have their TGI on record.
COCCOc1cc(C)cc(/C=C(C)/C=C/C2=C(C)CCCC2(C)C)n1 = > 100 µM
O=C(O)/C(Cc1cn[nH]n1)=N\O = > 100 µM

// CN(C)CCCn1c(=O)c2ccccc2c2cnc3[nH]ccc3c21 : TGI value = 3.66 µM

// Cc1ccc2nc(NC(=O)C(=O)C(C#N)c3ccc(Cl)cc3)sc2c1 (stereo unspecified) : TGI value = > 50 µM

// COc1ccc(C)cc(=O)c1O : TGI value = > 100 µM

// CC(=O)N1CCN(CCNC(=O)n2cc(-c3ccncc3)c(-c3cc(O)cc(Cl)c3)n2)CC1 : TGI value = 26.9 µM

---

# Test system: KM12 colon
# Protocol notes: NCI tumour cell line growth inhibition, 48 h; in the data active = GI50 below about 0.43 µM; inactive = the rest
Mark one answer only. Choices: active, inactive

Incoming: Hi, do you know how COC(=O)c1c(-c2cccs2)oc(-c2cccs2)c1C(=O)OC came out in this test?
Outgoing: inactive

Incoming: Hi, do you know how CC(C)N(Cc1ccc(CN(C(=O)CCl)C(C)C)cc1)C(=O)CCl came out in this test?
Outgoing: inactive

---

# Test system: LOX IMVI melanoma
# Protocol notes: NCI tumour cell line growth inhibition, 48 h; in the data active means GI50 below about 0.43 µM; inactive means the rest
Mark one answer only. Choices: y = active, n = inactive

For orientation, consider the following solved cases.
COc1cccc2cc(N(C)c3nc(C)nc4c3CCC4)ccc12 = y
CS(=O)(=O)c1ccc(Nc2nc(N[C@H]3CCCC[C@H]3N)nc3cc[nH]c(=O)c23)cc1 = n
COc1ccc(-c2cncn2-c2cc(OC)c(OC)c(OC)c2)cc1 = n
CCN(CC)CCCC(C)Nc1cc(-c2cccc(OC(F)(F)F)c2)nc2ccc(N3CCCC3)cc12 (stereo unspecified) = y
ClCc1ccccc1Cn1cnc2ncnc(Cl)c21 = n

Below: the item to evaluate.
Incoming: Hi, do you know how N#CC1=C(N)Oc2c(ccc3ccccc23)C1c1cc(=O)oc2ccc(Cl)cc12 (stereo unspecified) came out in this test?
Outgoing: n

---

# System: NCI-H460 lung
Mark one answer only. Choices: True (active), False (inactive)

For orientation, consider the following solved cases.
NC(=O)c1ccc(Oc2nccc(-c3c(-c4ccc(F)cc4)ncn3C3CCNCC3)n2)cc1 = False
CC/C(Cc1ccccc1)=C(\c1ccc(OCCN2CCCC2)cc1)c1ccc(OC(=O)NCc2ccccc2)cc1 = False
O=C1CSC(c2ccccc2Cl)N1c1nnc(Cn2cnnc2)o1 (centres undefined) = False
O=C(Nc1ccccc1I(=O)=O)C1CCCCC1 = False
CCCCCC(O)C(O)CCC[C@H](O)[C@H]1CC[C@H]([C@H]2CC[C@H]([C@H](O)CCCCCCCCCCCCC3=C[C@H](C)OC3=O)O2)O1 (some centres undefined) = False
CCCc1cc(=O)n2c(C(=O)Nc3ccc(F)cc3)c(C(=O)Nc3ccc(F)cc3)sc2n1 = False
O=C(/C=C/C=C/c1ccccc1)c1ccco1 = False
COc1ccc(/C=C/c2c(C(=O)/C=C/c3ccc(C(F)(F)F)cc3)c(C)nc3ccccc23)cc1 = False
CN=C1C=CC(=C(c2ccc(N(C)C)cc2)c2ccc(N(C)C)cc2)C=C1 = True
CS(=O)(=O)Nc1cccc(-c2ccc3ncnc(Nc4ccc(F)c(Cl)c4)c3c2)c1 = False

Incoming: Hi, do you know how COc1cccc2cc(N(C)c3nc(C)nc4c3CCC4)ccc12 came out in this test?
Outgoing: True

Incoming: Hi, do you know how CCCCC#Cc1c(I)n(C)c(=O)[nH]c1=O came out in this test?
Outgoing: False

Incoming: Hi, do you know how COc1ccc(-c2cncn2-c2cc(OC)c(OC)c(OC)c2)cc1 came out in this test?
Outgoing: True

Incoming: Hi, do you know how Cc1cc(N(CCOS(C)(=O)=O)CCOS(C)(=O)=O)ccc1C(=O)O came out in this test?
Outgoing: False

---

Catalogue of TGI values
# Tested on: K-562 leukemia
# Protocol notes: NCI tumour cell line growth inhibition, 48 h

CC(C)c1cccc(C(C)C)c1N1C(=O)C(=O)C(c2nc3ccccc3o2)C(=O)C1=O = > 100 µM

Summary: CCCCCCCCC#CCCCCCCCCCC[C@@H]1C(=O)O[C@H](C)[C@@H]1O (tested in a mixture with another compound) , K-562 leukemia, TGI = 21.4 µM

Summary: CCCCN(C)/N=N/c1nc[nH]c1C(N)=O , K-562 leukemia, TGI = > 100 µM

Summary: COC(=O)c1c(-c2cccs2)oc(-c2cccs2)c1C(=O)OC , K-562 leukemia, TGI = > 100 µM

Summary: COc1cc2nc(-c3cccs3)nc(Nc3cccc(Cl)c3)c2cc1OC , K-562 leukemia, TGI = > 100 µM

Summary: Cc1cc(S(=O)(=O)/N=C(/NN)Nc2ccc(Cl)cc2)c(S)cc1Cl , K-562 leukemia, TGI = > 100 µM

---

# System: T-47D breast
# Protocol notes: NCI tumour cell line growth inhibition, 48 h
Catalogue of TGI values

The cases that follow already have their TGI on record.
O=C(NC(=O)c1c(Cl)nc2sccn12)Nc1ccc(Cl)cc1 = > 100 µM
O=[N+]([O-])c1ccc(Cl)c(CNc2ncnc3c2ncn3C2CCCCO2)c1 (stereo unspecified) = > 100 µM
O=c1[nH]c(=O)n(C2OC(CO)C(O)C2O)cc1OCCCc1ccccc1 (stereo unspecified) = > 100 µM
Oc1ccc(-c2nc3ccccc3s2)cc1 = 70 µM
CS(=O)(=O)Nc1cccc(-c2ccc3ncnc(Nc4ccc(F)c(Cl)c4)c3c2)c1 = 5.17 µM

Next compound, TGI to be filled in.
// NC(=S)NC/C=C/Cl : TGI value = > 100 µM

---

# Tested on: OVCAR-3 ovarian
# Protocol notes: NCI tumour cell line growth inhibition, 48 h; in the data active = GI50 below about 0.43 µM; inactive = the rest
Mark one answer only. Choices: T = active, F = inactive

For orientation, consider the following solved cases.
CSc1nc2nc3c(nc2c(=O)n1C)C(=O)c1ccccc1C3=O = T
CCC[CH2][Sn]([CH2]CCC)([S]C#N)[S]C#N = F
COc1ccc(C(=O)/C=C/c2cc(-c3cc(OC)c(OC)c(OC)c3)n[nH]2)cc1 = F
Cc1c(C#N)cccc1[C@@H](C)Nc1nnc(C)c2cnc(N3CCOCC3)cc12 = F
COc1ccc(-c2ccc(/C=N/n3c(COc4ccccc4Cl)nn(CN4CCOCC4)c3=S)o2)c([N+](=O)[O-])c1 = F
COC(=O)c1c(-c2cccs2)oc(-c2cccs2)c1C(=O)OC = F
CC(=O)N1CCN(CCNC(=O)n2cc(-c3ccncc3)c(-c3cc(O)cc(Cl)c3)n2)CC1 = F
COc1ccc(C(=O)c2cc(C)c(OC)c(C)c2)c(OC)c1NC(C)=O = F
Cn1cc(C2=C(c3c[nH]c4ccccc34)C(=O)NC2=O)c2ccccc21 = F

Below: the item to evaluate.
Incoming: Hi, do you know how CCCCCCSSC(=S)N(CC)CC came out in this test?
Outgoing: F
